Cited source for all entries: paper PMC5085689

target-entity: b-ARG I (Bos taurus, UniProt Q2KJ64)
Construct: commercially-available purified bovine arginase (b-ARG I) instead of animal tissue; purchased MP Biomedicals; host or cells: bovine liver (enzyme purified from tissue)
assay-overview: Enzyme kinetic study and determination of Ki values on b-ARG I
Assay type: biochemical, bovine
reported-metric: pKi
// returns pKi (minus log10 of molar concentration), number only

Problem: Need pKi of O=C(/C=C/c1ccc(O)c(O)c1)O[C@@H]1C[C@](O)(C(=O)O)C[C@@H](O)[C@H]1O [CGA, chlorogenic acid, reference compound] , thanks.
Result: 5.08

====

target-entity: purified liver bovine arginase (b-ARG I) (Bos taurus)
Construct: commercially-available purified bovine arginase (b-ARG I) instead of animal tissue; purchased MP Biomedicals; host or cells: bovine liver (enzyme purified from tissue)
Sequence (Q2KJ64 1-322): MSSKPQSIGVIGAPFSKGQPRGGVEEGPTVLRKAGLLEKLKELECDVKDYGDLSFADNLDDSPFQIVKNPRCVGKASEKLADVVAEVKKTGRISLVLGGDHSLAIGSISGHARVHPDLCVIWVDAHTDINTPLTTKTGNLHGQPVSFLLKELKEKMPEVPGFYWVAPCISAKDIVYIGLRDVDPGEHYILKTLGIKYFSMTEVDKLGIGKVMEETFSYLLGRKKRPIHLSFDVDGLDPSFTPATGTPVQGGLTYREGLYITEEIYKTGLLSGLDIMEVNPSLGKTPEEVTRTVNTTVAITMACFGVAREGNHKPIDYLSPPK
assay-overview: In vitro colorimetric microassay of arginase inhibition on purified bovine liver arginase;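 note: urea formed from L-arginine detected colorimetrically with alpha-isonitrosopropiophenone at 550 nm after 60 min at 37 °C, inhibition relative to solvent controls taken as 100% arginase activity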
Format: biochemical
test-parameters: purified bovine liver arginase; three separate in-triplicate experiments; read-out: IC50 (b-ARG I)
pIC50: −log10 of the molar value.
Values of pIC50 greater than or equal to 4 map to true (1); values below map to false (0).

Problem: Can O=C(/C=C/c1ccc(O)cc1)NCCc1ccc(O)c(O)c1 [Compound 13] be said to have pIC50 at or above 4?
Result: false (0)

Problem: Can O=C(/C=C/c1ccc(O)c(O)c1)NCCc1ccc(O)cc1 [Compound 6] be said to have pIC50 at or above 4?
Result: true (1)

Problem: Can COC(=O)C(Cc1ccc(O)c(O)c1)NC(=O)C=Cc1ccc(O)c(O)c1 (stereo not drawn) [Compound 18] be said to have pIC50 at or above 4?
Result: true (1)

Problem: Can COc1cc(/C=C/C(=O)NCCc2ccc(O)c(O)c2)cc(OC)c1OC [Compound 14] be said to have pIC50 at or above 4?
Result: false (0)

Problem: Can COc1cc(/C=C/C(=O)NCCc2ccc(O)c(O)c2)ccc1O [Compound 12] be said to have pIC50 at or above 4?
Result: false (0)

Problem: Can O=C(/C=C/c1ccc(O)c(O)c1)Nc1ccc(O)cc1 [Compound 16] be said to have pIC50 at or above 4?
Result: true (1)

Problem: Can N=C(NO)NCC[C@H](N)C(=O)O [nor-NOHA, N^ω-hydroxy-nor-L-arginine, reference compound] be said to have pIC50 at or above 4?
Result: true (1)

Problem: Can O=C(NCCc1ccc(O)cc1)c1ccc(O)c(O)c1 [Compound 17] be said to have pIC50 at or above 4?
Result: false (0)

Problem: Can O=C(/C=C/c1ccccc1)NCCc1ccc(O)c(O)c1 [Compound 15, (E)-N-(3,4-Dihydroxyphenethyl)cinnamide] be said to have pIC50 at or above 4?
Result: true (1)

Problem: Can COC(=O)[C@H](CS)NC(=O)/C=C/c1ccc(O)c(O)c1 [Compound 19] be said to have pIC50 at or above 4?
Result: true (1)

Problem: Can O=C(/C=C/c1ccc(O)c(O)c1)NCCc1ccccc1 [Compound 1] be said to have pIC50 at or above 4?
Result: true (1)
